These entries and their values trace back to PubChem BioAssay (NCATS).

system: AS120; assay: qHTS profiling for inhibitors of Plasmodium falciparum proliferation (AID 504749); further: nearly all actives have a fitted effect of over 60% in size; settings: P. falciparum in erythrocytes, SYBR Green DNA, 72 h; series mostly up to 28.7 µM
Records with an inconclusive call do not appear. Calls of active or inactive are those of the source. The call rests on the fitted dose curve; in most records, active means well fitted inhibition curve with a large enough effect; inconclusive means small, poorly fitted or top-dose-only effect; inactive means flat fitted curve, though single readings scatter.
Your response should consist of one outcome taken from label 1 (active), label 0 (inactive)

Could you please tell me the result logged for CC(C)(C)NCC(O)c1cc(Cl)c(N)c(C(F)(F)F)c1 (stereo not drawn) in this assay? label 1

Short answer needed: outcome of this test for CCC1(c2ccccc2)C(=O)N(COC)C(=O)N(COC)C1=O ? label 0

Assay outcome for CCCCCCC(=O)CCCCCC/C=C/C[C@@H](O)[C@H](O)[C@@](N)(CO)C(=O)O : what was it? label 0

====

settings: Ebola virus entry assay, green fluorescence channel
Entries with a potency or affinity are not part of this list.
Please respond with reported efficacy for every item in the list.
State the answer as a number, implicitly in %.

So what does the record say about efficacy for CC(N)CCCC(C)(C)O (stereo not drawn) ? -22.7

Would you kindly share the measured efficacy for NC(=O)c1cccnc1 ? -19.3

Can you look up the measured efficacy of O=C1c2ccccc2CCc2ccccc21 for me? 12.1

Any idea what efficacy was measured for Oc1ccc(Cl)c2cccnc12 ? -23.9

I would be grateful if you could share the reported efficacy for CC(=O)N(CC(O)CO)c1c(I)c(C(=O)NCCO)c(I)c(C(=O)NCC(O)CO)c1I (stereo not drawn) . -10.6

Item CC(=O)OCC1=C(C(=O)O)N2C(=O)[C@@H](N)[C@H]2SC1 has what recorded efficacy? 11.9

// lookup efficacy for C#C[C@]1(O)CC[C@H]2[C@@H]3CCC4=CC(=O)CC[C@@H]4[C@H]3CC[C@@]21CC 10.4

# query: efficacy of entry CO/N=C(/C(=O)N[C@@H]1C(=O)N2C(C(=O)[O-])=C(C[n+]3ccn4ncccc43)CS[C@H]12)c1nsc(N)n1 12.5

Quick one: efficacy for O=C(O)c1ccccc1C(=O)Nc1ccc(S(=O)(=O)Nc2nccs2)cc1 ? -12.6

Look up efficacy for this compound: CC(NN)c1ccccc1 (stereo not drawn) -30

Fill in the blank: the reported efficacy of CCCCCC(C)N (stereo not drawn) is ____. -23

Need efficacy, item CN1CCN(CC(=O)N2c3ccccc3C(=O)Nc3cccnc32)CC1 -20.7

Endpoint output: efficacy of Cc1cccc(C)c1OCC(=O)N[C@@H](Cc1ccccc1)[C@@H](O)C[C@H](Cc1ccccc1)NC(=O)[C@H](C(C)C)N1CCCNC1=O . Value? 20.6

Suppose we examine the compound COc1ccc(C2CNC(=O)C2)cc1OC1CCCC1 (stereo not drawn) ; what efficacy value has been reported? -23.7

Form field: reported efficacy of CCCCCN(CCCOC)C(=O)C(CCC(=O)O)NC(=O)c1ccc(Cl)c(Cl)c1 (stereo not drawn) -27.8

Give the measured efficacy of COc1ccc(/C(C)=C/C(=O)O)c(OC)c1 . -13.7

Value lookup for efficacy; key = CC(=O)N[C@@H](CCC(=O)O)C(=O)O -13.7

What value of efficacy has been reported for the following compound? COc1ccccc1N1CCN(CCCCNC(=O)c2ccc(-c3ccc(C(C)=O)cc3)cc2)CC1 25.2

What does the record list as efficacy for O=C(O)COc1nn(Cc2ccccc2)c2ccccc12 ? -8.45

Look up efficacy: CCN1CCC[C@H]1CNC(=O)c1cc(S(N)(=O)=O)ccc1OC -21.3

efficacy for COc1cccc([C@@]2(O)CCCC[C@@H]2CN(C)C)c1 ? -12.5

Which efficacy is listed for O=C(O)Cc1ccc(OCCNC[C@H](O)c2ccccc2)cc1 ? -33.3

For the compound O=C(Oc1ccccc1)c1ccccc1O , what efficacy is on record? -17.4

Suppose we examine the compound C[C@]12CC[C@@H]3c4ccc(OC(=O)N(CCCl)CCCl)cc4CC[C@H]3[C@@H]1CC[C@@H]2O ; what efficacy value has been reported? -12.5

// lookup efficacy for O=C(O)c1cc(-c2ccccc2)nc2ccccc12 -14.9

Consider the compound shown here: Cc1cc(CC(=O)O)c(C)n1-c1ccc(Cl)cc1 What is its recorded efficacy? 41.9

Given the compound CN1CCC(O)(c2ccc(F)cc2)C(C(=O)c2ccc(F)cc2)C1 (stereo not drawn) , what is its reported efficacy? 22.6

Quick check: efficacy of O=c1[nH]c2ccccc2n1C1CCNCC1 ? -18

====

Please respond with reported efficacy for every item in the list.
conditions: Ebola virus entry assay, green fluorescence channel
Entries with a potency or affinity are not part of this list.
Report as a plain number; the unit % is understood.

What value of measured efficacy is listed for Cc1c(C(C)C)c(=O)n(-c2ccccc2)n1C ? 14.2

Which measured efficacy value corresponds to CC(=O)NS(=O)(=O)c1ccc(N)cc1 ? 10.9

Fill in: efficacy of CCC1(CC)C(=O)C=CNC1=O is ___ -31

Give the measured efficacy of O=C(NCCO[N+](=O)[O-])c1cccnc1 . -12.5

Entry under review: C[C@H]1C[C@H](O)c2ccsc2S1(=O)=O . Reported efficacy? 20.1

Item under review: CCn1cc(C(=O)O)c(=O)c2cnc(N3CCCC3)nc21 . Reported efficacy? 11.6

Fill in: efficacy of CC(C)NCC(O)c1cc(O)cc(O)c1 (stereo not given) is ___ 56.8

Could you share which efficacy value was measured for COc1ccc(O)cc1 ? 18.3

Endpoint output: efficacy of O=C(O)/C=C\C(=O)O . Value? 12.7

# input compound: O=C(O)c1ccccc1OP(=O)(O)O ; wanted: its efficacy 11.4

====

Molecular target: Cytochrome P450 2D6 (Homo sapiens) (UniProt P10635)
Sequence (P10635 whole entry, looked up): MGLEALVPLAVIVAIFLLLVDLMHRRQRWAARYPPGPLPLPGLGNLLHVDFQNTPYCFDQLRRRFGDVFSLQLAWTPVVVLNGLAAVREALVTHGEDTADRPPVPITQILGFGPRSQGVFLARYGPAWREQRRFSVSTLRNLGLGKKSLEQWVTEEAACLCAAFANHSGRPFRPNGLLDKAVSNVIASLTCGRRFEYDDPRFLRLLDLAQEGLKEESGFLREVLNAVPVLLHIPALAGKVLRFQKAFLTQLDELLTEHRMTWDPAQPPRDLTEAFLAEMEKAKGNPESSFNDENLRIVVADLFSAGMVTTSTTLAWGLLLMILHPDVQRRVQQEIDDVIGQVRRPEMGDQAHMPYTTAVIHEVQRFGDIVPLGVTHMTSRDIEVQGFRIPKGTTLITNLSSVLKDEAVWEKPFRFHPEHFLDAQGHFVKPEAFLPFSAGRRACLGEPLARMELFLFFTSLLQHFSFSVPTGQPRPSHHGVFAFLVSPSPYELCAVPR
Assay: Cytochrome P450 family 2 subfamily D member 6 (CYP2D6) small molecule antagonists: luciferase biochemical (cell-free) qHTS assay (AID 1645840); further: nearly all actives have a fitted effect of over 55% in size; further: potency means the concentration at half of the fitted maximal effect
Conditions: P450-Glo CYP2D6 enzyme, luciferin luminescence, 1 h; series mostly up to 57.4 µM
Description: National Center for Advancing Translational Sciences [NCATS] Assay Overview: Cytochrome P450 (CYP) enzymes are membrane-bound hemeproteins that play a key role in metabolism of drugs and xenobiotics. Assaying the effect of chemicals on CYP isozymes is useful to minimize the adverse drug reactions and toxicities in drug development process. […] The luciferin products formed are detected with a luciferin detection reagent, and the amount of light produced is proportional to CYP activity. […]
Inconclusive results are not listed. The source made the active and inactive calls. Calls come from the whole dose curve; as a rule, active = well fitted inhibition curve with a large enough effect in the repeat runs; inconclusive = weak or mixed curves; inactive = flat fitted curve, though single readings scatter.
Measured Property: Potency

# Compound, Potency
rows = [
    ("COP(=S)(OC)Oc1ccc(SC)c(C)c1", "inactive"),
    ("O=C1c2ccccc2C(=O)C1C(=O)C(c1ccccc1)c1ccccc1", "19.2 µM (active)"),
    ("CCC1(CC)C(=O)C=CNC1=O", "inactive"),
    ("CC[N+]1(CC)CCC(OC(=O)C(O)(c2ccccc2)c2ccccc2)C1 (configuration not stated)", "12.9 µM (active)"),
    ("O=C1c2ccccc2C(=O)c2ccccc21", "inactive"),
    ("C[C@]12CCC(=O)C=C1CC[C@@H]1[C@@H]2CC[C@@]2(C)[C@H]1CC[C@]2(C)O", "inactive"),
]

Would you kindly look at the next entry?
May I ask what Potency has been recorded for Nc1ccc([As](=O)(O)O)cc1 ? inactive

====

molecular target: Cytochrome P450 2C9 (Homo sapiens); assay: Cytochrome P450 family 2 subfamily C member 9 (CYP2C9) small molecule antagonists: luciferase biochemical (cell-free) qHTS assay (AID 1645842); conditions: P450-Glo CYP2C9 enzyme assay, luciferin luminescence; series mostly up to 57.4 µM; further: nearly all actives have a fitted effect of over 55% in size
Inconclusive results are not listed. Activity calls are given as the source filed them. The call rests on the fitted dose curve; in most records, active means well fitted inhibition curve with a large enough effect in the repeat runs; inconclusive means weak or mixed curves; inactive means no such curve, though single readings can be large or run the other way.
Bench note: report the call from active, inactive

Any idea what this test logged for COc1cc(OC)c(OC)cc1C=O ? inactive

Which outcome was assigned to COP(=S)(OC)Oc1ccc(SC)c(C)c1 in this test? active

I'd appreciate the recorded outcome for COc1c2c(cc3c1OCO3)CCN(C)C2 from this test. inactive

Per the records of this test, what outcome belongs to CCCCCCC(=O)CCCCCC/C=C/C[C@@H](O)[C@H](O)[C@@](N)(CO)C(=O)O ? inactive

Write down the call the test reported for this compound. Item: O=C(N/N=C/c1ccc([N+](=O)[O-])o1)c1cc([N+](=O)[O-])cc([N+](=O)[O-])c1O inactive

Field: outcome | Entry: C#CC(O)(C=CCl)CC (centres undefined) inactive

Any idea what this test logged for O=C(CCCN1CCC2(CC1)C(=O)NCN2c1ccccc1)c1ccc(F)cc1 ? inactive

For CC[N+]1(CC)CCC(OC(=O)C(O)(c2ccccc2)c2ccccc2)C1 (centres undefined) , which call appears in the assay record? inactive

Which outcome was entered for the compound C#C[C@]1(O)CC[C@H]2[C@@H]3CCC4=CC(=O)CC[C@]4(C)[C@H]3CC[C@@]21C in this test? inactive

For CC(=O)OCC1=C(C(=O)O)N2C(=O)[C@@H](N)[C@H]2SC1 , which call appears in the assay record? inactive

Status in this test for C[C@@H](N)[C@@H](O)c1ccccc1 ? inactive

Could you check what this test reported for COc1cc(CCN)cc(OC)c1OC ? inactive

// outcome(item) with item = O=c1c(C2CC(c3ccc(-c4ccc(Br)cc4)cc3)Cc3ccccc32)c(O)sc2ccccc12 (centres undefined) active

Per the assay record, what outcome was assigned to COC1CC(=C(c2cccs2)c2cccs2)C[N+](C)(C)C1 (centres undefined) ? inactive

Would you mind telling me which call this test gave CCCCCCCCCCCCCCCCCC(=O)O ? inactive

# fetch the recorded call for CC(Cc1ccccc1)N(C)Cc1ccco1 (centres undefined) here inactive

Which outcome was entered for the compound C[C@]12CCC(=O)C=C1CC[C@@H]1[C@H]3CC[C@](C)(O)[C@@]3(C)CC[C@@H]12 in this test? active

How did this test come out for c1ccc(CN2CCNCC2)cc1 ? inactive

Called result for CC(C)(C)NCC(O)c1cc(Cl)c(N)c(C(F)(F)F)c1 (centres undefined) inactive

Returns: the outcome recorded for CCN[C@@H](C)Cc1ccccc1 in this assay. inactive

What classification did NC(=O)CS(=O)C(c1ccccc1)c1ccccc1 (centres undefined) end up with in this test? inactive

Lab log entry: NC(=O)c1cc([N+](=O)[O-])cc([N+](=O)[O-])c1 — outcome as called in the assay? inactive

Any idea what this test logged for CCCCCCCCCC(=O)O[C@H]1CC[C@H]2[C@@H]3CCC4=CC(=O)CC[C@@H]4[C@H]3CC[C@]12C ? active

Would you mind telling me which call this test gave C=CCC1(C(C)CC)C(=O)NC(=O)NC1=O (centres undefined) ? inactive
